I'd be grateful if you could share measured IC50 for these entries.
Test system: Entamoeba histolytica
test-protocol: Antiprotozoal activity against Entamoeba histolytica HM-1:IMSS
Type: functional, organism-based
Give the number; µM is assumed, so skip it.

// C=C1[C@@H]2CC[C@H]3[C@]4(C)CCC[C@@](C)(C(=O)O)[C@H]4CC[C@]3(C2)[C@@H]1O[C@H]1O[C@@H](C)[C@@H](O)[C@@H](O)[C@@H]1O : IC50 value = 73.5

// C=C1[C@@H]2CC[C@H]3[C@]4(C)CCC[C@@](C)(C(=O)O[C@@H]5O[C@H](CO)[C@@H](O)[C@H](O)[C@H]5O)[C@H]4CC[C@]3(C2)[C@@H]1O[C@H]1O[C@@H](C)[C@@H](O)[C@@H](O)[C@@H]1O : IC50 value = 43.3

// C=C1[C@@H]2CC[C@H]3[C@]4(C)CCC[C@@](C)(C(=O)O[C@@H]5O[C@H](CO)[C@@H](O)[C@H](O)[C@H]5O)[C@H]4CC[C@]3(C2)[C@@H]1O[C@H]1O[C@@H](C)[C@@H](O)[C@@H](OC(C)=O)[C@@H]1O : IC50 value = 52.7

// C=C1[C@@H]2CC[C@H]3[C@]4(C)CCC[C@@](C)(C(=O)O[C@@H]5O[C@H](CO)[C@@H](O)[C@H](O)[C@H]5O)[C@H]4CC[C@]3(C2)[C@@H]1O[C@H]1O[C@@H](C)[C@@H](OC(C)=O)[C@@H](O)[C@@H]1O : IC50 value = 49.5

Attribution: ChEMBL document CHEMBL3739326
